# Method notes: A549 lung cancer cell viability effects, profiling panel, resazurin fluorescence, 24 h, PK04 Diversity Set (AID 1171); note: test concentration not given here
# Test conditions: higher = more signal, called active from +8 up or from −8 down
Record T whenever z-score is at 0.6 or higher; record F when lower.

{"Query smiles": "O=C(NCc1ccccc1)[C@@H]1c2ccccc2C(=O)N(Cc2ccccc2Cl)[C@H]1c1ccc(CO)cc1", "Class assignment": "T"}
{"Query smiles": "[N-]=[N+]=Nc1ccccc1[C@H]1OC(c2ccc(OCCCO)cc2)=N[C@@]1(Cc1ccccc1)C(N)=O", "Class assignment": "F"}
{"Query smiles": "Cc1ccc(S[C@]2(C(=O)NC3CC3)CC(=O)N(Cc3ccccc3C(F)(F)F)[C@@H]2c2ccc(CO)cc2I)cc1", "Class assignment": "F"}
{"Query smiles": "COCCOC(=O)N1C(=O)[C@@]2(c3cc(C#CCNC(N)=O)ccc31)[C@H](c1ccccc1OCCO)N1[C@H](c3ccccc3)[C@H](c3ccccc3)OC(=O)[C@H]1[C@@H]2C(=O)Nc1nc2ccccc2s1", "Class assignment": "T"}
{"Query smiles": "COCCOC(=O)N1C(=O)[C@@]2(c3cc(C#CC4(O)CCCCCC4)ccc31)[C@H](c1ccc(O)cc1)N1[C@H](c3ccccc3)[C@H](c3ccccc3)OC(=O)[C@H]1[C@@H]2C(N)=O", "Class assignment": "T"}
{"Query smiles": "Cc1ccc(S[C@]2(C(=O)NCC(C)C)CC(=O)N(C(C)C)[C@@H]2c2ccc(CO)cc2)cc1", "Class assignment": "F"}
{"Query smiles": "Cc1ccc(N2C(=O)c3ccccc3[C@](C)(C(=O)NCC(F)(F)F)[C@@H]2c2ccc(CO)cc2)nc1", "Class assignment": "F"}

====

Below is a list of entries, each paired with its recorded z-score value.
# Method notes: adipocyte viability effects, profiling panel, cell-based, 3T3-L1 adipocytes, calcein-AM fluorescence, 48 h, basal (AID 1163); note: test concentration not given here
# Test conditions: 3T3-L1 adipocytes viability, higher = more signal

{"Query smiles": "COc1ccc(C#Cc2ccc3c(c2)[C@]2(C(=O)N3)[C@H](c3ccc(O)cc3)N3[C@H](c4ccccc4)[C@H](c4ccccc4)OC(=O)[C@H]3[C@@H]2C(=O)N2CCN(c3ncccn3)CC2)cc1", "z-score": 1.37}
{"Query smiles": "CC(C)C(=C=CC[C@H](O)c1ccc(OCCO)cc1)C[C@H](O)COCc1ccccc1", "z-score": 0.475}
{"Query smiles": "NCCCCCNC(=O)[C@H]1C[C@H]2C(=O)NCC(=O)N2[C@H]1c1ccc(O)cc1", "z-score": 1.46}
{"Query smiles": "COc1c(C)cc(-c2cc3c(c(CCc4ccccc4)n2)[Si](C(C)C)(C(C)C)OC3)cc1C", "z-score": 1.27}
{"Query smiles": "[N-]=[N+]=Nc1ccccc1[C@H]1OC(c2ccc(OCCCO)cc2)=N[C@@]1(Cc1ccccc1)C(N)=O", "z-score": 1.26}
{"Query smiles": "COc1ccc(C(=O)Nc2cccc(CN3C(=O)[C@@]4(O[C@@H](CCO)[C@H]([Si](C)(C)c5ccc(OC)cc5)[C@H]4C)c4ccccc43)c2)cc1", "z-score": -0.301}
{"Query smiles": "C[N+](C)(C)CCCCNC(=O)[C@@H]1C[C@@H]2C(=O)NCC(=O)N2[C@@H]1c1cccc(OCCO)c1", "z-score": -0.0369}
{"Query smiles": "[N-]=[N+]=NCc1ccccc1C[C@]1(C(=O)NCc2ccccc2)N=C(c2ccc(OCCCO)cc2)O[C@H]1c1ccccc1", "z-score": 0.457}

====

Below is a list of entries, each paired with its recorded z-score value.
# Method notes: S. cerevisiae RM11-1a growth modifiers, primary screen, strain RM11-1a, OD600, basal, 24 h (AID 1177);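 note: cultures grown under basal conditions with no added stressor; test concentration not given here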
# Test conditions: OD600, 24 h, higher = more signal, called active from +8 up or from −8 down
Endpoint label: z-score

{"Compound": "CC(CO)N1C(=O)[C@@H]2C3C(=O)OCCC/C=C\\[C@H]3OC23C=CCN(Cc2ccccc2)C(=O)[C@@H]13 (some centres undefined)", "Endpoint label": "z-score", "Recorded measurement": -0.985}
{"Compound": "C#CCOc1ccc(C[C@H]2C(=O)O[C@H](Cc3ccccc3)[C@H](/C=C/C3CC3)N2CC#C)cc1", "Endpoint label": "z-score", "Recorded measurement": 1.29}
{"Compound": "C=C(/C(=C/C[C@H](OC(=O)c1ccncc1)c1cccc(OCCO)c1)c1cc(C(=O)OC)ccc1OC)C(C)C", "Endpoint label": "z-score", "Recorded measurement": -1.06}
{"Compound": "COCCOC(=O)N1C(=O)[C@@]2(c3cc(C#CCNC(N)=O)ccc31)[C@H](c1ccccc1OCCO)N1[C@H](c3ccccc3)[C@H](c3ccccc3)OC(=O)[C@H]1[C@@H]2C(=O)Nc1nc2ccccc2s1", "Endpoint label": "z-score", "Recorded measurement": 1.17}

====

# Method notes: yeast growth modulation, basal conditions, primary screen, YJM789 clinical isolate, OD600, 24 h (AID 1089);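 note: growth of clinical yeast isolate S. cerevisiae YJM 789 seeded 1000 cells per well; test concentration not given here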
# Test conditions: S. cerevisiae YJM789 growth, higher = more signal, called active from +8 up or from −8 down
Endpoint label: z-score

{"Compound": "CC(C)C[C@@H]1NC(=O)[C@@H]2C[C@H](C(=O)NCCCCCNC(=O)CS)[C@H](c3cccc(OCCO)c3)N2C1=O", "Recorded measurement": -1.66}
{"Compound": "[N-]=[N+]=Nc1ccccc1[C@H]1OC(c2ccc(OCCCO)cc2)=N[C@@]1(Cc1ccccc1)C(N)=O", "Recorded measurement": 2.87}
{"Compound": "C=C(/C(=C/C[C@H](OC(C)=O)c1cccc(OCCO)c1)c1cc(C(=O)OC)ccc1OC)C(C)C", "Recorded measurement": 0.0359}
{"Compound": "O=C1c2ccccc2[C@@]2(Cc3ccccc3N(CC(F)(F)F)C2=O)[C@H](c2ccc(CO)cc2)N1Cc1ccccc1C(F)(F)F", "Recorded measurement": -0.84}
{"Compound": "O=C(N1CCCCC1)[C@@]1(Cc2ccccc2)N=C(c2ccc(OCCCO)cc2)O[C@H]1c1ccccc1", "Recorded measurement": -0.997}
{"Compound": "C=CCN1C(=O)[C@@]2(O[C@@H](CCn3cc(CCO)nn3)[C@H]([Si](C)(C)c3ccc(OC)cc3)[C@H]2C)c2cc(N3C(=O)c4cccc5cccc3c45)ccc21", "Recorded measurement": -0.309}
{"Compound": "COc1ccc([Si](C)(C)[C@H]2[C@H](CC(=O)N(CCO)Cc3ccccc3)O[C@@]3(C(=O)N(Cc4cccc(N5C(=O)COc6ccccc65)c4)c4ccccc43)[C@@H]2C)cc1", "Recorded measurement": 2.21}
{"Compound": "O=C1c2ccccc2C(=O)c2cc([C@H]3Oc4ccccc4S(=O)(=O)N4CCC[C@@H]34)ccc21", "Recorded measurement": -1.31}
{"Compound": "COC(=O)C(CC#Cc1ccc2c(c1)[C@]1(C(=O)N2)[C@H](c2ccccc2OCCO)N2[C@H](c3ccccc3)[C@H](c3ccccc3)OC(=O)[C@H]2[C@@H]1C(=O)N1CCCCCCC1)C(=O)OC", "Recorded measurement": 0.349}
{"Compound": "CO[C@H]1O[C@H](CO)[C@@H](OC(=O)Nc2ccccc2)[C@H](OC(=O)Nc2ccccc2-c2ccccc2)[C@H]1OC(=O)Nc1ccccc1-c1ccccc1", "Recorded measurement": -2.03}
{"Compound": "C=CC[C@]1(C(=O)N(C)C)N=C(c2ccc(OCCCO)cc2)O[C@H]1c1ccccc1CN=[N+]=[N-]", "Recorded measurement": -1.01}
{"Compound": "NC(=O)N1C(=O)C2C(C1=O)C1C=C(c3ccc(CO)cc3)C2C(C2CC2)N1Cc1cc2c(cc1Br)OCO2 (configuration not stated)", "Recorded measurement": -0.779}
{"Compound": "O=C1O[C@H](c2ccccc2)[C@H](c2ccccc2)N2[C@H]1[C@@H](C(=O)Nc1nc3ccccc3s1)[C@]1(C(=O)Nc3ccc(C#CCCO)cc31)[C@H]2c1ccccc1OCCO", "Recorded measurement": 0.764}
{"Compound": "C=C(COC)/C(=C/C[C@H](OC(C)=O)c1ccc(CO)o1)c1cnc2ccccc2c1", "Recorded measurement": -0.342}
{"Compound": "CC(C)(C)OC(=O)CC[C@@]1(C(=O)NCc2ccccc2)N=C(c2ccc(OCCCO)cc2)O[C@@H]1c1ccccc1CN=[N+]=[N-]", "Recorded measurement": -0.0222}
{"Compound": "CCCNC(=O)[C@@H]1c2ccccc2C(=O)N(Cc2cc(C(F)(F)F)cc(C(F)(F)F)c2)[C@H]1c1ccc(CO)cc1", "Recorded measurement": 0.73}
{"Compound": "CC(C)[Si](C#C[Si](C(C)C)(C(C)C)C(C)C)(O[C@H](C)c1cn([C@H](C)c2ccccc2)nn1)C(C)C", "Recorded measurement": -1.22}
{"Compound": "C=CCN1C(=O)[C@]2(O[C@H](CCn3cc([C@H](O)c4ccccc4)nn3)[C@@H]([Si](C)(C)c3ccc(OC)cc3)[C@@H]2C)c2cc(N3CCOC3=O)ccc21", "Recorded measurement": 0.326}
{"Compound": "COCCOC(=O)N1C(=O)[C@@]2(c3cc(C#CC4(O)CCCCCC4)ccc31)[C@H](c1ccc(O)cc1)N1[C@H](c3ccccc3)[C@H](c3ccccc3)OC(=O)[C@H]1[C@@H]2C(N)=O", "Recorded measurement": -0.549}
{"Compound": "CN1C=C(C(=O)OCCS(C)(=O)=O)C(C(=O)OCCS(C)(=O)=O)=CC(CCCO)=CC1c1cccs1 (configuration not stated)", "Recorded measurement": -0.444}
{"Compound": "COc1ccc(/C=C/C(=O)c2cccc(OCC(=O)OC(C)(C)C)c2)cc1", "Recorded measurement": 0.0268}
{"Compound": "CCOC(=O)C[C@H]1[C@H](OC(=O)c2cc3ccccc3oc2=O)[C@@H](NC(=O)c2ccccc2)c2cc(OCCCO)ccc2N1C(=O)Cc1ccc(OC)cc1", "Recorded measurement": -0.196}
{"Compound": "O=C1O[C@@H](c2ccccc2)[C@@H](c2ccccc2)N2[C@@H](c3ccc(OCCO)cc3)[C@]3(C(=O)Nc4ccc(C#CC5(O)CCCCCC5)cc43)[C@@H](C(=O)NC[C@H](O)c3ccccc3)[C@H]12", "Recorded measurement": 1.24}
{"Compound": "[N-]=[N+]=NCc1ccccc1C[C@@]1(C(=O)NCc2ccccc2)N=C(c2ccc(OCCCO)cc2)O[C@@H]1c1ccccc1", "Recorded measurement": 1.06}
{"Compound": "O=C1O[C@H](c2ccccc2)[C@H](c2ccccc2)N2[C@H]1[C@@H](C(=O)NC[C@H](O)c1ccccc1)[C@]1(C(=O)Nc3ccc(C#CC4(O)CCCCCC4)cc31)[C@H]2c1ccc(O)cc1", "Recorded measurement": -0.307}
{"Compound": "O=C(O)[C@H]1C[C@H]2C(=O)N[C@@H](Cc3ccccc3)C(=O)N2[C@H]1c1ccc(O)cc1", "Recorded measurement": -0.261}
{"Compound": "CC(C)N1CC=CC23O[C@@H]4/C=C\\CCCOC(=O)C4[C@H]2C(=O)N(CCCO)[C@@H]3C1=O (some centres not stated)", "Recorded measurement": 0.759}

Ref: PubChem BioAssay
